Examples of binders with documented kon follow.
- target.or.test.system: HSV-1F gB ectodomain (recombinant glycoprotein B of Herpes simplex virus 1 strain F, aa 30-729) (Herpes simplex virus 1 (strain F), UniProt P06436, biotin (EZ-Link NHS-PEG4-Biotin, gB monomer to biotin 1:3) in the BLI only)
- method: BLI
- settings: both partners purified

- binder: "HDIT102 Fab (Fab, V domains shown) VH: EVQLVQSGAEVKTPGASVRVSCKASGHTFRTFDINWVRQAAGQGLEWMGWMSPNSGNTGYARQFQGRVTMTRNISANTAYMELRGLRFDDTAVYYCARGPGSTGTTGSMDVWGQGTTVTVSS VL: QAGLTQPPSVSVAPGKTARISCGGNNIGSKSVHWYQQKPGQAPVLVIYYDSDRPSGIPERFSGSNSGNTATLTISRVEAGDEADYYCQVWDSGSVVFGGGTKLTVL"
  kon, M⁻¹ s⁻¹: 992000
- binder: "HDIT101 Fab (Fab, V domains shown, source: papain digestion of GMP-grade HDIT101 IgG1 (Celonic Germany GmbH), Pierce Fab Preparation Kit) VH: TLKESGPALVKPTQTLTLTCTFSGFSLSTSGMSVGWIRQPPGKALEWLAHIWWNNDKYYKPALKSRLTISKDTSKNQVVLTMTNMDPVDTATYYCARIYYGYRPYAMDYWGQGTLVTVSS VL: IVMTQTPLSLPVTPGEPASISCRSSQSIVHSNGNTYLEWYLQKPGQSPQLLIYKVSNRFSGVPDRFSGSGSGTDFTLKISRVEAEDVGVYYCFQGSHVPWSFGQGTKLEIK"
  kon, M⁻¹ s⁻¹: 435000
- binder: "HDIT102 IgG (antibody, V domains shown, also called fully human IgG HDIT102; source: research grade quality, by contract manufacturer) VH: EVQLVQSGAEVKTPGASVRVSCKASGHTFRTFDINWVRQAAGQGLEWMGWMSPNSGNTGYARQFQGRVTMTRNISANTAYMELRGLRFDDTAVYYCARGPGSTGTTGSMDVWGQGTTVTVSS VL: QAGLTQPPSVSVAPGKTARISCGGNNIGSKSVHWYQQKPGQAPVLVIYYDSDRPSGIPERFSGSNSGNTATLTISRVEAGDEADYYCQVWDSGSVVFGGGTKLTVL"
  kon, M⁻¹ s⁻¹: 700000
- binder: "HDIT101 IgG (antibody, V domains shown, also called humanized IgG HDIT101; source: GMP-grade, produced by Celonic Germany GmbH (contract manufacturer)) VH: TLKESGPALVKPTQTLTLTCTFSGFSLSTSGMSVGWIRQPPGKALEWLAHIWWNNDKYYKPALKSRLTISKDTSKNQVVLTMTNMDPVDTATYYCARIYYGYRPYAMDYWGQGTLVTVSS VL: IVMTQTPLSLPVTPGEPASISCRSSQSIVHSNGNTYLEWYLQKPGQSPQLLIYKVSNRFSGVPDRFSGSGSGTDFTLKISRVEAEDVGVYYCFQGSHVPWSFGQGTKLEIK"
  kon, M⁻¹ s⁻¹: 500000
